Listing of entries alongside the reported scaled log2 fold change.
B1: library; numbered along this chain (parent)
chain: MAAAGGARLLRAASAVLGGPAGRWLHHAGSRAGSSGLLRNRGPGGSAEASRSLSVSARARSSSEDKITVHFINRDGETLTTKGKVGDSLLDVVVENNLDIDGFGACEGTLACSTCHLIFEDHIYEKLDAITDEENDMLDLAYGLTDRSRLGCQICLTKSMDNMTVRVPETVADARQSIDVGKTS

- Variants of: B1
- method: scaled log2 fold change in cell abundance, elesclomol vs control (0 = silent mean, 1 = nonsense mean) (scaled log2 ratio); higher = higher viability under elesclomol (loss of FDX1 cuproptosis function);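 also: variant abundance is its share of total variant reads in each endpoint sample, from next-generation sequencing of the integrated ORF PCR-amplified out of genomic DNA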
- measurementContext: with HEK293T FDX1 KO; elesclomol 40 nM; glucose 10 mM; 11 days

Some variants with known scaled log2 fold change results, for comparison:
# variantDescriptor, scaled log2 fold change
measured = [
    ("N96E", -0.435),
    ("A13N", -0.531),
    ("C106R", 1.14),
    ("I130P", -0.467),
    ("A59D", 0.274),
    ("S30V", -0.701),
    ("H122N", 0.129),
    ("L9H", 0.226),
]

Prompt: In one line, give reported scaled log2 fold change of the entry E107Q .
Response: -0.527
